Test system: HCC827 (human non-small cell lung cancer cells)
Assay: MTT cancer cell growth inhibition
Format: cell-based
Settings: Homo sapiens, HCC827, 72 h, MTT, 72 hours incubation, HCC827 cells; read-out: GI50 HCC827
propertyName: GI50 (nM)

1. CC(C)=C1NC(=O)c2cc(F)cc(n2)CNC(=O)C[C@@H](/C=C/CCS)OC(=O)[C@H](C(C)C)NC1=O 49
2. C/C=C1\NC(=O)c2cccc(n2)CNC(=O)C[C@@H](/C=C/CCSC(=O)CCCCC)OC(=O)[C@H](C(C)C)NC1=O 33
3. C/C=C1\NC(=O)c2ccc(F)c(n2)CNC(=O)C[C@@H](/C=C/CCSC(=O)CCCCCCC)OC(=O)[C@H](C)NC1=O 83
4. C/C=C1\NC(=O)c2ccc(F)c(n2)CNC(=O)C[C@@H](/C=C/CCS)OC(=O)[C@H](Cc2cccc3ccccc23)NC1=O 38
5. C/C=C1\NC(=O)c2nc(ccc2SCCC)CNC(=O)C[C@@H](/C=C/CCSC(=O)CCCCCCC)OC(=O)[C@H](CC)NC1=O 46
6. C/C=C1\NC(=O)c2nccc(n2)CNC(=O)C[C@@H](/C=C/CCS)OC(=O)[C@H](C(C)C)NC1=O 73
7. C/C=C1\NC(=O)c2nc(ccc2F)CNC(=O)C[C@@H](/C=C/CCS)OC(=O)[C@H](Cc2ccccc2)NC1=O 41
8. C/C=C1\NC(=O)c2cc(SC)cc(n2)CNC(=O)C[C@@H](/C=C/CCSC(=O)CCCCCCC)OC(=O)[C@H](C)NC1=O 41
9. C/C=C1\NC(=O)c2cc(F)cc(n2)CNC(=O)C[C@@H](/C=C/CCS)OC(=O)[C@H](Cc2cccc3ccccc23)NC1=O 29
10. C/C=C1\NC(=O)c2nc(ccc2F)CNC(=O)C[C@@H](/C=C/CCSC(C)=O)OC(=O)[C@@H](C)NC1=O 17
11. C/C=C1\NC(=O)c2ccc(F)c(n2)CNC(=O)C[C@@H](/C=C/CCSC(=O)CCCCCCC)OC(=O)[C@H](CC)NC1=O 93
12. C/C=C1\NC(=O)c2cc(F)cc(n2)CNC(=O)C[C@@H](/C=C/CCS)OC(=O)[C@H](Cc2ccc(O)cc2)NC1=O 22
13. C/C=C1\NC(=O)c2ccc(F)c(n2)CNC(=O)C[C@@H](/C=C/CCS)OC(=O)[C@H](CC)NC1=O 57

----------
Molecular target: HDAC1 (Homo sapiens, UniProt Q13547)
Sequence (Q13547 whole entry, species assumed): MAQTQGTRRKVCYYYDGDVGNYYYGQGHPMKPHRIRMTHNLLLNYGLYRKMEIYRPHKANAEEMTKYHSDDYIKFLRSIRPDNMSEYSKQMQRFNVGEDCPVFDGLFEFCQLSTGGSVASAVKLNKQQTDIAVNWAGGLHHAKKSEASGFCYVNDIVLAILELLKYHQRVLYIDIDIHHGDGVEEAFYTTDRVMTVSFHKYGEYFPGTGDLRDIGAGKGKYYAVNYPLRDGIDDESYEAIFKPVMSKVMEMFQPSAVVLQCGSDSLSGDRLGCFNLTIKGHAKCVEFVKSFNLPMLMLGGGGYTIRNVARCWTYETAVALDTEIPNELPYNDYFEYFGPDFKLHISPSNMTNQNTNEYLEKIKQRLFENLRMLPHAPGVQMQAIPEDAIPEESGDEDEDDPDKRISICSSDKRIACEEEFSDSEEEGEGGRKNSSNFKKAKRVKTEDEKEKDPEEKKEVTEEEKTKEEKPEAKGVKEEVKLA
Test: HDAC biochemical activity measurement (fluorescent substrate deacetylation);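 note: fluorogenic acetyl-lysine substrate (20 µM) deacetylated by HDAC1, then developer releases fluorophore read at 360 nm excitation and 460 nm emission, inhibitor incubated 30 min at 37 °C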
Settings: HDAC1; 37° C. 30 minutes; read-out: IC50 HDAC1
pIC50: −log10 of the molar value.

compound	pIC50
C/C=C1\NC(=O)c2nc(ccc2C)CNC(=O)C[C@@H](/C=C/CCSC(C)=O)OC(=O)[C@H](Cc2ccccc2)NC1=O [Compound 66]	7.39
C/C=C1\NC(=O)c2nc(ccc2C)CNC(=O)C[C@@H](/C=C/CCSC(=O)CCCCCCC)OC(=O)[C@H](C(C)C)NC1=O [Compound 243]	7.06
C/C=C1\NC(=O)c2cc(F)cc(n2)CNC(=O)C[C@@H](/C=C/CCSC(=O)CCC)OC(=O)[C@H](C(C)C)NC1=O [Compound 43]	7.57
C/C=C1\NC(=O)c2cccc(n2)CNC(=O)C[C@@H](/C=C/CCS)OC(=O)[C@@H](C)NC1=O [Compound 145]	7.29
C/C=C1\NC(=O)c2nc(F)cc(n2)CNC(=O)C[C@@H](/C=C/CCSC(C)=O)OC(=O)[C@H](C(C)C)NC1=O [Compound 98]	7.21
C/C=C1\NC(=O)c2cccc(n2)CNC(=O)C[C@@H](/C=C/CCSC(C)=O)OC(=O)[C@H](C(C)C)NC1=O [Compound 7]	7.06
C/C=C1\NC(=O)c2cccc(n2)CNC(=O)C[C@@H](/C=C/CCSC(=O)CCCCCCC)OC(=O)[C@H](C)NC1=O [Compound 11]	7.54
C=C1NC(=O)c2nc(ccc2F)CNC(=O)C[C@@H](/C=C/CCSC(C)=O)OC(=O)[C@H](C(C)C)NC1=O [Compound 84]	7.38
C/C=C1\NC(=O)c2cc(F)cc(n2)CNC(=O)C[C@@H](/C=C/CCSC=O)OC(=O)[C@H](C(C)C)NC1=O [Compound 52]	7.35
C/C=C1\NC(=O)c2cccc(n2)CNC(=O)C[C@@H](/C=C/CCSC(C)=O)OC(=O)[C@H](Cc2ccc(O)cc2)NC1=O [Compound 18]	6.73
